assay: Terminal half life in Sprague-Dawley rat at 0.5 mg/kg, iv and 1 mg/kg, po; assay type: ADME, organism-based; settings: in vivo
ENDPOINT LABEL: half-life (h)
Answers are plain numbers, in h.

For the molecule shown here, "CC(C)(C)CC(=O)Nc1c(F)cc(C(=O)Nc2nccs2)cc1F" , give the reported half-life. 7.8

###

Record set of pKi for target or system Adenosine receptor A1 (Homo sapiens, UniProt P30542).
Answers are plain numbers, as −log10 of the molar value.

Use the examples below as a reference point.
Param readout = pKi; param system = Adenosine receptor A1 (Homo sapiens, UniProt P30542); param query = "Cc1cc(C(=O)Nc2nccs2)cc(Cl)c1NC(=O)CC(C)(C)C" ; response: value 6.24

Param readout = pKi; param system = Adenosine receptor A1 (Homo sapiens, UniProt P30542); param query = "CC(C)(C)CC(=O)Nc1ccc(C(=O)Nc2nccs2)cc1F" ; response: value 6.19

Param readout = pKi; param system = Adenosine receptor A1 (Homo sapiens, UniProt P30542); param query = "CC(C)(C)CC(=O)Nc1ccc(C(=O)Nc2nccs2)cc1Cl" ; response: value 6.68

// next item, pKi requested
Param readout = pKi; param system = Adenosine receptor A1 (Homo sapiens, UniProt P30542); param query = "COc1cc(C(=O)Nc2nccs2)ccc1NC(=O)CC(C)(C)C" ; response: value 6.47
